Origin of values: ChEMBL document CHEMBL1140713

molecular target: Human immunodeficiency virus type 1 integrase (Human immunodeficiency virus 1, UniProt Q7ZJM1); assay: Inhibition of recombinant HIV1 integrase-mediated 3'-processing activity in presence of magnesium
Sequence (Q7ZJM1 whole entry): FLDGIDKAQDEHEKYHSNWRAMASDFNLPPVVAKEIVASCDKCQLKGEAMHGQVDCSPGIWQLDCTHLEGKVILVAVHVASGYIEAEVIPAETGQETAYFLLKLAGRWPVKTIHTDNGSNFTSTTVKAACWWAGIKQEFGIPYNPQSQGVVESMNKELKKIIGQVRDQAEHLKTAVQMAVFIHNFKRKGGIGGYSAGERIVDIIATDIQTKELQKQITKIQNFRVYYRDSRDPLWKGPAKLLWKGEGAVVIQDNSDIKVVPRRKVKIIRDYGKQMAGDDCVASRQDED
pIC50: −log10 of the molar value.
Returns one of Fulfilled or Not fulfilled; Fulfilled when pIC50 is >= 4.

[
  {
    "smiles_record": "O=C1c2c(ccc(O)c2O)CN1N1C(=O)c2cc(O)c(O)cc2C1=O",
    "group": "Fulfilled"
  },
  {
    "smiles_record": "O=C1c2c(ccc(O)c2O)CN1Cc1cccc(Cc2ccccc2)c1",
    "group": "Not fulfilled"
  },
  {
    "smiles_record": "O=C1c2c(ccc(O)c2O)CN1N(S(=O)(=O)c1ccc(F)cc1)S(=O)(=O)c1ccc(F)cc1",
    "group": "Not fulfilled"
  },
  {
    "smiles_record": "O=C1c2c(ccc(O)c2O)CN1Cc1cccc(CBr)c1",
    "group": "Fulfilled"
  },
  {
    "smiles_record": "O=C1c2c(ccc(O)c2O)CN1N1C(=O)c2cccc(O)c2C1=O",
    "group": "Fulfilled"
  },
  {
    "smiles_record": "COc1cccc(C(=O)NNC(=O)c2cccc(O)c2O)c1O",
    "group": "Not fulfilled"
  },
  {
    "smiles_record": "O=C(N/N=C/c1cccc(O)c1O)c1cccc(O)c1O",
    "group": "Fulfilled"
  },
  {
    "smiles_record": "O=C(NNC(=O)c1cccc(O)c1O)c1cccc(O)c1O",
    "group": "Fulfilled"
  },
  {
    "smiles_record": "O=C(NN1Cc2ccc(O)c(O)c2C1=O)c1ccccc1",
    "group": "Not fulfilled"
  }
]

----------
target: Human immunodeficiency virus type 1 integrase (Human immunodeficiency virus 1); assay: Inhibition of recombinant HIV1 integrase strand transfer activity in presence of magnesium
parameter: IC50 (µM)

[
  {
    "smiles_record": "O=C(NCc1ccc(F)cc1)c1cccc(O)c1O",
    "unit_name": "µM",
    "meas_value": 108
  },
  {
    "smiles_record": "O=C1c2c(ccc(O)c2O)CN1Cc1cccc2ccccc12",
    "unit_name": "µM",
    "meas_value": 0.74
  },
  {
    "smiles_record": "O=C1c2c(ccc(O)c2O)CN1Cc1ccc(F)c(Cl)c1",
    "unit_name": "µM",
    "meas_value": 0.16
  },
  {
    "smiles_record": "O=C1c2c(ccc(O)c2O)CN1Cc1ccccc1",
    "unit_name": "µM",
    "meas_value": 12.3
  },
  {
    "smiles_record": "O=C(NN1Cc2ccc(O)c(O)c2C1=O)c1cccc(O)c1O",
    "unit_name": "µM",
    "meas_value": 6
  },
  {
    "smiles_record": "COc1cccc(/C=N/NC(=O)c2cccc(O)c2O)c1OC",
    "unit_name": "µM",
    "meas_value": 68
  },
  {
    "smiles_record": "O=C1c2c(ccc(O)c2O)CN1N(S(=O)(=O)c1ccc(F)cc1)S(=O)(=O)c1ccc(F)cc1",
    "unit_name": "µM",
    "meas_value": 33
  },
  {
    "smiles_record": "O=C1c2c(ccc(O)c2O)CN1Cc1cccc(Cc2ccccc2)c1",
    "unit_name": "µM",
    "meas_value": 172
  }
]
